target: μ-opioid receptor (Homo sapiens)
Construct: purchased Perkin Elmer, Shelton, Conn
method: μ-opioid receptor [35S]GTPγS functional assay
Type: biochemical
condition-context: maximal effect relative to DAMGO
For each record, write down the corresponding Emax.
Expressed in %, but write only the number.

# Emax lookup, item `CCN1C(=O)N(CC)[C@]2(CC[C@@]3(O)[C@H]4Cc5ccc(O)cc5[C@@]3(CCN4)C2)C1=O`
28

Next: `CN(C)CCN1CC[C@]23C[C@@]4(CC[C@@]2(O)[C@H]1Cc1ccc(O)cc13)C(=O)N(CC1CC1)C(=O)N4CC1CC1`
1

Next: `CCN1C(=O)N(CC)[C@]2(CC[C@@]3(O)[C@H]4Cc5ccc(OC)cc5[C@@]3(CCN4CCCN(C)C)C2)C1=O`
1

Next: `CCN1C(=O)N(CC)[C@]2(CC[C@@]3(O)[C@H]4Cc5ccc(OC)cc5[C@@]3(CCN4CCN(C)C)C2)C1=O`
1

---

For each record, write down the corresponding Emax.
target: μ-opioid receptor (Homo sapiens, UniProt P35372)
Construct: purchased Perkin Elmer, Shelton, Conn
Sequence (P35372 whole entry, species assumed): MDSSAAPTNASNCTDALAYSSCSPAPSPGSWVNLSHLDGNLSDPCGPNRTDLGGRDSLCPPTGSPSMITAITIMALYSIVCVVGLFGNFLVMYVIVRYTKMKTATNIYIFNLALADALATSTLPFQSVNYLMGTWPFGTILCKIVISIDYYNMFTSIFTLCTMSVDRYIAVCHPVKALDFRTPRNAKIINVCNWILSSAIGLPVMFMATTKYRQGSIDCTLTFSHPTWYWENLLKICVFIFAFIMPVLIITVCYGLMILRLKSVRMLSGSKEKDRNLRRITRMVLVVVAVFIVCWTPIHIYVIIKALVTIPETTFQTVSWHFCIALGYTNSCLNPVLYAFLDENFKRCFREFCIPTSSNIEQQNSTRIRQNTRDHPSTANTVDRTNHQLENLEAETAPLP
method: μ-opioid receptor [35S]GTPγS functional assay
Format: biochemical
condition-context: maximal effect relative to DAMGO
Expressed in %, but write only the number.

# Emax lookup, item COc1ccc2c(c1)[C@]13CCN(C)[C@H](C2)[C@@H]1CC[C@@]1(C3)NC(=O)NC1=O [Compound 2]
75.7

Next: COc1ccc2c(c1)[C@]13CCN[C@H](C2)[C@]1(O)CC[C@]1(C3)C(=O)N(CC2CC2)C(=O)N1CC1CC1 [Compound 17]
26

Next: CCN1C(=O)N(CC)[C@]2(CC[C@H]3[C@H]4Cc5ccc(O)cc5[C@@]3(CCN4C)C2)C1=O [Compound 21]
24.7

Next: CCN1C(=O)N(CC)[C@]2(CC[C@@]3(O)[C@H]4Cc5ccc(OC)cc5[C@@]3(CCN4)C2)C1=O [Compound 18]
35.7

---

target: human kappa opioid receptor (κ) (Homo sapiens, UniProt P41145)
measure: Ki (nM)
Expressed in nM, but write only the number.

# Ki lookup, item `CCN1C(=O)N(CC)[C@]2(CC[C@H]3[C@H]4Cc5ccc(O)cc5[C@@]3(CCN4C)C2)C1=O`
10.5

---

target: κ opioid receptor (Homo sapiens, UniProt P41145)
Sequence (P41145 whole entry): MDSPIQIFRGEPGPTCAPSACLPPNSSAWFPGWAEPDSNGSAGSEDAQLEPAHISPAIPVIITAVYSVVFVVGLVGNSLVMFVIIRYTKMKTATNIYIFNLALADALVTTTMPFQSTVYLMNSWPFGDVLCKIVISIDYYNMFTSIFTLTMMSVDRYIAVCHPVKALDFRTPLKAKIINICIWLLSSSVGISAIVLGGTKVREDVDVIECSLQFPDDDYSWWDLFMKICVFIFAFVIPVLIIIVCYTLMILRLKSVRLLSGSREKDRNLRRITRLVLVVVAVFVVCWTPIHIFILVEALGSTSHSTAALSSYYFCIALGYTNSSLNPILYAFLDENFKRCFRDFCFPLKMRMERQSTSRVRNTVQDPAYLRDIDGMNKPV
method: κ-opioid receptor [35S]GTPγS functional assay
measure: EC50 (nM)
Expressed in nM, but write only the number.

# EC50 lookup, item `CCN1C(=O)N(CC)[C@]2(CC[C@H]3[C@H]4Cc5ccc(O)cc5[C@@]3(CCN4C)C2)C1=O`
221

---

target: μ-opioid receptor (Homo sapiens, UniProt P35372)
method: μ-opioid receptor [35S]GTPγS functional assay
pEC50: −log10 of the molar value.
Entry flag: rule met if pEC50 reaches 5; rule not met if it does not.

I'd appreciate it if you could say whether `CCN1C(=O)N(CC)[C@]2(CC[C@@]3(O)[C@H]4Cc5ccc(/C(N)=N\O)cc5[C@@]3(CCN4C)C2)C1=O` has pEC50 at least equal to 5.
rule not met

Next: `CCN1C(=O)N(CC)[C@]2(CC[C@@]3(O)[C@H]4Cc5ccc(O)cc5[C@@]3(CCN4CCc3ccccc3)C2)C1=O`
rule met

Next: `CCN1C(=O)N(CC)[C@]2(CC[C@@]3(O)[C@H]4Cc5ccc(O)cc5[C@@]3(CCN4)C2)C1=O`
rule met

Next: `CCN1C(=O)N(CC)[C@]2(CC[C@@]3(O)[C@H]4Cc5ccc(O)cc5[C@@]3(CCN4CCN(C)C)C2)C1=O`
rule not met

Next: `COc1ccc2c(c1)[C@]13CCN(CCN(C)C)[C@H](C2)[C@]1(O)CC[C@@]1(C3)NC(=O)NC1=O`
rule not met

Next: `O=C1N(CC2CC2)C(=O)[C@@]2(CC[C@@]3(O)[C@H]4Cc5ccc(O)cc5[C@@]3(CCN4)C2)N1CC1CC1`
rule met

Next: `COc1ccc2c(c1)[C@]13CCN(C)[C@H](C2)[C@@H]1CC[C@@]1(C3)NC(=O)NC1=O`
rule not met

Next: `CN(C)CCCN1CC[C@]23C[C@]4(CC[C@@]2(O)[C@H]1Cc1ccc(O)cc13)NC(=O)NC4=O`
rule not met

Next: `O=C1NC(=O)[C@@]2(CC[C@@]3(O)[C@H]4Cc5ccc(O)cc5[C@@]3(CCN4)C2)N1`
rule met

Next: `CCN1C(=O)N(CC)[C@]2(CC[C@@]3(O)[C@H]4Cc5ccc(OC)cc5[C@@]3(CCN4CCN(C)C)C2)C1=O`
rule not met

Next: `CCN1C(=O)N(CC)[C@]2(CC[C@@]3(O)[C@H]4Cc5ccc(O)cc5[C@@]3(CCN4CCCN(C)C)C2)C1=O`
rule not met

Next: `CCN1C(=O)N(CC)[C@]2(CC[C@@]3(O)[C@H]4Cc5ccc(OC)cc5[C@@]3(CCN4CCCN(C)C)C2)C1=O`
rule not met

Next: `COc1ccc2c(c1)[C@]13CCN(CCCN(C)C)[C@H](C2)[C@]1(O)CC[C@@]1(C3)NC(=O)NC1=O`
rule not met

Next: `COc1ccc2c(c1)[C@]13CCN(CCN(C)C)[C@H](C2)[C@]1(O)CC[C@]1(C3)C(=O)N(CC2CC2)C(=O)N1CC1CC1`
rule not met

---

target: μ-opioid receptor (Homo sapiens, UniProt P35372)
method: μ-opioid receptor [35S]GTPγS functional assay
measure: pEC50
When answering, recall that pEC50 equals minus log10 of the concentration in mol/L, and write that number alone.

Write down the reported pEC50 of `CN1CC[C@]23C[C@]4(CC[C@H]2[C@H]1Cc1ccc(O)cc13)NC(=O)NC4=O` , test system: μ-opioid receptor (Homo sapiens, UniProt P35372).
7.01

Next: `CCN1C(=O)N(CC)[C@]2(CC[C@H]3[C@H]4Cc5ccc(O)cc5[C@@]3(CCN4C)C2)C1=O`
7.26

Next: `CCN1C(=O)N(CC)[C@]2(CC[C@@]3(O)[C@H]4Cc5ccc(C(N)=O)cc5[C@@]3(CCN4C)C2)C1=O`
6.01

Next: `CN(C)CCN1CC[C@]23C[C@]4(CC[C@@]2(O)[C@H]1Cc1ccc(O)cc13)NC(=O)NC4=O`
5.41

---

target: μ-opioid receptor (Homo sapiens, UniProt P35372)
Construct: purchased Perkin Elmer, Shelton, Conn
method: μ-opioid receptor [35S]GTPγS functional assay
Assay type: biochemical
condition-context: maximal effect relative to DAMGO
For each record, write down the corresponding Emax.
Expressed in %, but write only the number.

# Emax lookup, item CCN1C(=O)N(CC)[C@]2(CC[C@@]3(O)[C@H]4Cc5ccc(C(N)=O)cc5[C@@]3(CCN4C)C2)C1=O [Compound 33]
39.3

Next: CN(C)CCCN1CC[C@]23C[C@@]4(CC[C@@]2(O)[C@H]1Cc1ccc(O)cc13)C(=O)N(CC1CC1)C(=O)N4CC1CC1 [Compound 28]
1.36

Next: CCN1C(=O)N(CC)[C@]2(CC[C@@]3(O)[C@H]4Cc5ccc(O)cc5[C@@]3(CCN4CCN(C)C)C2)C1=O [Compound 26]
0.5

Next: COc1ccc2c(c1)[C@]13CCN(CCN(C)C)[C@H](C2)[C@]1(O)CC[C@]1(C3)C(=O)N(CC2CC2)C(=O)N1CC1CC1 [Compound 15]
1

Next: CN1CC[C@]23C[C@]4(CC[C@H]2[C@H]1Cc1ccc(O)cc13)NC(=O)NC4=O [Compound 19]
54.6

Next: O=C1NC(=O)[C@@]2(CC[C@@]3(O)[C@H]4Cc5ccc(O)cc5[C@@]3(CCN4)C2)N1 [Compound 22]
71.7

Next: CCN1C(=O)N(CC)[C@]2(CC[C@@]3(O)[C@H]4Cc5ccc(O)cc5[C@@]3(CCN4CCc3ccccc3)C2)C1=O [Compound 24]
65.3

Next: CCN1C(=O)N(CC)[C@]2(CC[C@@]3(O)[C@H]4Cc5ccc(O)cc5[C@@]3(CCN4CCCN(C)C)C2)C1=O [Compound 27]
1

Next: O=C1N(CC2CC2)C(=O)[C@@]2(CC[C@@]3(O)[C@H]4Cc5ccc(O)cc5[C@@]3(CCN4)C2)N1CC1CC1 [Compound 23]
15.7

Next: CN(C)CCCN1CC[C@]23C[C@]4(CC[C@@]2(O)[C@H]1Cc1ccc(O)cc13)NC(=O)NC4=O [Compound 30]
1

Next: CCN1C(=O)N(CC)[C@]2(CC[C@@]3(O)[C@H]4Cc5ccc(/C(N)=N\O)cc5[C@@]3(CCN4C)C2)C1=O [Compound 34]
29.7

Next: CN(C)CCN1CC[C@]23C[C@]4(CC[C@@]2(O)[C@H]1Cc1ccc(O)cc13)NC(=O)NC4=O [Compound 29]
23.4

Next: COc1ccc2c(c1)[C@]13CCN(CCCN(C)C)[C@H](C2)[C@]1(O)CC[C@]1(C3)C(=O)N(CC2CC2)C(=O)N1CC1CC1 [Compound 13]
1

Next: COc1ccc2c(c1)[C@]13CCN(CCCN(C)C)[C@H](C2)[C@]1(O)CC[C@@]1(C3)NC(=O)NC1=O [Compound 4]
-1

Next: COc1ccc2c(c1)[C@]13CCN(CCN(C)C)[C@H](C2)[C@]1(O)CC[C@@]1(C3)NC(=O)NC1=O [Compound 3]
-0.8

Next: CCN1C(=O)N(CC)[C@]2(CC[C@@]3(O)[C@H]4Cc5ccc(C#N)cc5[C@@]3(CCN4C)C2)C1=O [Compound 32]
16.3
